- Assay Target: T1, PCSK9 protein inserted with biotin receiving peptide BP15 and His-tag: PCSK9-BP15-His6 (human, UniProt Q8NBP7 153-692; A8T644 31-152, biotin on the BP15 biotin receiving peptide (labeled during the expression))
- T1 construct: also called WT PCSK9; PCSK9 WT
- Assay Remarks: ELISA, biotin PCSK9 on streptavidin plate
Could you mark each record yes (1) if its EC50 falls strictly under 5 ng/mL, and no (0) if it equals or exceeds it?

Prompt line: Determine whether this binder shows EC50 lower than 5 ng/mL (ties excluded): h011-3093 (antibody, V domains shown) VH: QVQLVQSGAEVKKPGASVKVSCKASGYTFTGYTIHWVRQAPGQGLEWMGYINPSSTYTKFNQKFKDRVTMTRDTSISTAYMELSRLRSDDTAVYYCARERIYSNYWFFDVWGQGTTVTVSS VL: DIVMTQSPSSLSASVGDRVTITCKASQNVYTAVAWYQQKPGKSPKLLIYEMVNRYTGVPSRFSGSGSGTDFTLTISSLQPEDFATYFCQQYSSYPYTFGGGTKVEIK
Response line: yes (1)

Prompt line: Determine whether this binder shows EC50 lower than 5 ng/mL (ties excluded): h011-3133 (antibody, V domains shown) VH: QVQLVQSGAEVKKPGASVKVSCKASGYTFTGYEIHWVRQAPGQGLEWMGYINPSATYTKFNQKFKDRVTMTRDTSISTAYMELSRLRSDDTAVYYCARERIYSNYWFFDVWGQGTTVTVSS VL: DIVMTQSPSSLSASVGDRVTITCKASQNVYTAVAWYQQKPGKSPKLLIYSASNRYTGVPSRFSGSGSGTDFTLTISSLQPEDFATYFCQQYSSYPYTFGGGTKVEIK
Response line: yes (1)

Prompt line: Determine whether this binder shows EC50 lower than 5 ng/mL (ties excluded): h011-3095 (antibody, V domains shown) VH: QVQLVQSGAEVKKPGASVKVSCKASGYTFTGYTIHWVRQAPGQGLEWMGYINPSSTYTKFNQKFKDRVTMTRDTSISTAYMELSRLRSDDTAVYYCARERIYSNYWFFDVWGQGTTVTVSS VL: DIVMTQSPSSLSASVGDRVTITCKASQNVYTAVAWYQQKPGKSPKLLIYEASNRYTGVPSRFSGSGSGTDFTLTISSLQPEDFATYFCQQYSSYPYTFGGGTKVEIK
Response line: yes (1)

Prompt line: Determine whether this binder shows EC50 lower than 5 ng/mL (ties excluded): h011-3050 (antibody, V domains shown) VH: QVQLVQSGAEVKKPGASVKVSCKASGYTFTGYTIHWVRQAPGQGLEWMGEILPSSTYTKFNQKFKDRVTMTRDTSISTAYMELSRLRSDDTAVYYCARERIYSNYWFFDVWGQGTTVTVSS VL: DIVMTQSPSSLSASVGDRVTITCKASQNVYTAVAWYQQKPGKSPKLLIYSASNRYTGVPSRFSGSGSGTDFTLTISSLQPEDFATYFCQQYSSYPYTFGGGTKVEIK
Response line: yes (1)

Prompt line: Determine whether this binder shows EC50 lower than 5 ng/mL (ties excluded): h011-3118 (antibody, V domains shown) VH: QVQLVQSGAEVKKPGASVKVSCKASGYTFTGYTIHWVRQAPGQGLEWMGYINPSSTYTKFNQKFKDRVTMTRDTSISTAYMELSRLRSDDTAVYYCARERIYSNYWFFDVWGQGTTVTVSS VL: DIVMTQSPSSLSASVGDRVTITCKASQNVYWEVVWYQQKPGKSPKLLIYSASNRYTGVPSRFSGSGSGTDFTLTISSLQPEDFATYFCQQYSSYPYTFGGGTKVEIK
Response line: yes (1)

Prompt line: Determine whether this binder shows EC50 lower than 5 ng/mL (ties excluded): h011-3120 (antibody, V domains shown) VH: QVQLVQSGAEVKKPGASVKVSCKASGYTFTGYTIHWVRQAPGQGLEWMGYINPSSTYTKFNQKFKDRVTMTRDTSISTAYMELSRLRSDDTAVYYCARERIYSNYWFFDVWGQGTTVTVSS VL: DIVMTQSPSSLSASVGDRVTITCKASQNVYTAVAWYQQKPGKSPKLLIYSASNRYTGVPSRFSGSGSGTDFTLTISSLQPEDFATYFCQQFSWFPYTFGGGTKVEIK
Response line: no (0)

Prompt line: Determine whether this binder shows EC50 lower than 5 ng/mL (ties excluded): h011-3181 (antibody, V domains shown) VH: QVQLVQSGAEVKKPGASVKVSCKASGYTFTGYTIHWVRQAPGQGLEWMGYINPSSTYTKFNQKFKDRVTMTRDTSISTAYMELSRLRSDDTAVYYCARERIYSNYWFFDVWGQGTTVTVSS VL: DIVMTQSPSSLSASVGDRVTITCKASQNVYTAVAWYQQKPGKSPKLLIYSASNRYTGVPSRFSGSGSGTDFTLTISSLQPEDFATYFCQQLSSYPDTFGGGTKVEIK
Response line: yes (1)

Prompt line: Determine whether this binder shows EC50 lower than 5 ng/mL (ties excluded): h011-3192 (antibody, V domains shown) VH: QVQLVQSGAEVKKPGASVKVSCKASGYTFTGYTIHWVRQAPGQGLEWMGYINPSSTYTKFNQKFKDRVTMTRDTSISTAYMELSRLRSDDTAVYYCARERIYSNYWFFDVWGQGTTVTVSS VL: DIVMTQSPSSLSASVGDRVTITCKASQNVYTEVAWYQQKPGKSPKLLIYSASNRYTGVPSRFSGSGSGTDFTLTISSLQPEDFATYFCQQYSSYPYTFGGGTKVEIK
Response line: no (0)

Prompt line: Determine whether this binder shows EC50 lower than 5 ng/mL (ties excluded): h011-3147 (antibody, V domains shown) VH: QVQLVQSGAEVKKPGASVKVSCKASGYTFTGYTIHWVRQAPGQGLEWMGEIIPSSTYTKFNQKFKDRVTMTRDTSISTAYMELSRLRSDDTAVYYCARERIYSNYWFFDVWGQGTTVTVSS VL: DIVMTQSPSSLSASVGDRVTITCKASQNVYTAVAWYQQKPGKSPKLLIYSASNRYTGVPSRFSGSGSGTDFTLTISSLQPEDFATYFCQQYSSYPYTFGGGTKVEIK
Response line: yes (1)
